Assay: CLR1404 tumor selectivity across 60 tumor models
Type: in vivo, rodent
Settings: athymic nude (Hsd:Athymic Nude-Foxn1nu or Crl:NU-Foxn1nu), tumor, intravenous; xenograft, orthotopic, transgenic and spontaneous rodent models; read-out: tumor models showing selective uptake and prolonged retention
Readout Type: number of tumor models with selective uptake

Can you look up the measured number of tumor models with selective uptake of C[N+](C)(C)CCOP(=O)([O-])OCCCCCCCCCCCCCCCCCCc1ccc(I)cc1 for me?
> 55
